Reported glycan array binding signal (z-score) is given for each of the following binders.
Target: Gal(b1-3)[Fuc(a1-4)]GlcNAc(b1-6)GalNAc
Assay: glycan array binding signal (z-score within array); higher = stronger binding
Conditions: glycan notation: IUPAC condensed, linker removed
The sample as a whole holds a higher share of the strongest signals than the screen did.
Give the figure only, with no unit attached.

What value of glycan array binding signal (z-score) has been recorded for this entry: SJCP1084 (Schistosoma japonicum) (protein) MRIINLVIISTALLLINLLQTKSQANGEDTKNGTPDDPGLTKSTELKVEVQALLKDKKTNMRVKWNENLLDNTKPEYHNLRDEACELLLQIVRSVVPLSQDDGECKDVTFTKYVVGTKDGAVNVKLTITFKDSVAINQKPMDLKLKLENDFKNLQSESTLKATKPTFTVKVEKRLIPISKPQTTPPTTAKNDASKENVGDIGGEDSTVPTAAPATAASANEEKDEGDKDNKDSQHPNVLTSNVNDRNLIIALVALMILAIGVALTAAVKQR
-0.381

What value of glycan array binding signal (z-score) has been recorded for this entry: SBD-G4S3-SBD (protein) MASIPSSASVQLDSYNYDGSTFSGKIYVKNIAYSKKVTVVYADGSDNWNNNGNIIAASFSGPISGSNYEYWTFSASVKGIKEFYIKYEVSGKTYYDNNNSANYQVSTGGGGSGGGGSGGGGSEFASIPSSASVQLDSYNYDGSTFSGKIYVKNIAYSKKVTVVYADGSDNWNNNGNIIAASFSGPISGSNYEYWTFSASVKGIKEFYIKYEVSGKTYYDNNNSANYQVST
4.38

What value of glycan array binding signal (z-score) has been recorded for this entry: LngA (Escherichia coli) (protein) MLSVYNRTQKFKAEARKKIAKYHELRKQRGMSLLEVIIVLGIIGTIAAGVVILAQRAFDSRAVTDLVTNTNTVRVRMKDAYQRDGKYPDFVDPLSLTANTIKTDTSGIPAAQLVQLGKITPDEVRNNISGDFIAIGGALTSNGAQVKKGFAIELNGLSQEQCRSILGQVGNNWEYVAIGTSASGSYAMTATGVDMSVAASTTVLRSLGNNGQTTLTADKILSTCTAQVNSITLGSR
-0.438

What value of glycan array binding signal (z-score) has been recorded for this entry: FimA-N2 (Actinomyces oris) (protein) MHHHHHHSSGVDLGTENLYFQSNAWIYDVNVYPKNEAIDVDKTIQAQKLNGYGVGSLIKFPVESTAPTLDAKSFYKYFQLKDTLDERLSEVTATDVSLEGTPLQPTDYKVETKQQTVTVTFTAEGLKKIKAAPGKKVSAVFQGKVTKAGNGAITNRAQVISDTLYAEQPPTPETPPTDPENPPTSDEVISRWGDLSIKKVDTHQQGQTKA
-0.651

What value of glycan array binding signal (z-score) has been recorded for this entry: Aap arpt (Staphylococcus epidermidis) (protein) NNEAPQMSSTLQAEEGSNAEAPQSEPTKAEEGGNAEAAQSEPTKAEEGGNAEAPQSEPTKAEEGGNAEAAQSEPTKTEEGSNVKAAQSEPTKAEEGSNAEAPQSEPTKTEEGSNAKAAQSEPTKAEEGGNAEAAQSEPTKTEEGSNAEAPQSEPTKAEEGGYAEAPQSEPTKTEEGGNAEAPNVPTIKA
-0.35

What value of glycan array binding signal (z-score) has been recorded for this entry: Epa8 (Candida glabrata) (protein) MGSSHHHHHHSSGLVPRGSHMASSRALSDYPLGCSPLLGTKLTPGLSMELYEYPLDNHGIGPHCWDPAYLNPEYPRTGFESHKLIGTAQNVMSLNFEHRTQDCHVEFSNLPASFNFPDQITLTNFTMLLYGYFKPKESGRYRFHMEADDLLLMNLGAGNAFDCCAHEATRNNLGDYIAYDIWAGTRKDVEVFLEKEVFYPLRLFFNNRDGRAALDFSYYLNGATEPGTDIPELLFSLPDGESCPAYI
2.52
